Quick reference: %Inh of the listed items.
# Tested on: SBK1;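 also: KINOMEscan kinase panel screen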
# reportedConditions: concentration: 1 μM, replicates: in singlicate; n = 1
Include the unit after the number when you answer.

Note to self: %Inh recorded for Cc1ccc(C(=O)N2CC[C@@H](O)C2)cc1-n1c(C)cc(OCc2ccc(F)cc2F)c(Br)c1=O was 0%

Note to self: %Inh recorded for Cl.Cl.NCC(C(=O)Nc1cc(Br)c(-c2ccnc3[nH]ccc23)s1)c1ccccc1 (stereo not shown) was 3%

Note to self: %Inh recorded for O=C(Nc1ccccc1F)NC1CCN(c2ccnc(Nc3ccc(F)cc3)n2)CC1 was 0%

Please find the next compound below.
Note to self: %Inh recorded for CCc1ccc(-c2ccc3c(c2)-c2c(cnn2C)S(=O)(=O)N3C)cc1 was 0%
